# maps each entry to its DR/DR LNA
test: Probe fluorescence ratio response to linolenic acid relative to ADIFAB2; type: binding; conditions: response relative to ADIFAB2
Lab note: record the figure alone, no unit after it.

>  <molecule>
47T1, L72A (protein, listed as Rattus norvegicus, PEPTIDE (1)...(131) wild-type rat intestinal fatty acid binding protein) AFDGTWKVDRNENYEKFMEKMGINVVKRKLGAHDNLKLTITQEGNKTTVKESSNFRNIDVVFELGVDFAYSAADGTELTGTWTMEGNKLVGKFKRVDNGKELIAVREISGNELIQTYTYEGVEAKRIFKKE

>  <DR/DR LNA>
0.74

$$$$

Kindly review the next molecule as well.
Q) Please give the measured DR/DR LNA for this molecule: 106I, 72A (protein, listed as Rattus norvegicus, PEPTIDE (1)...(131) wild-type rat intestinal fatty acid binding protein) AFDGTWKVDRNENYEKFMEKMGINVVKRKLGAHDNLKLTITQEGNKFTVKESSNFRNIDVVFELGVDFAYSAADGTELTGTWTMEGNKLVGKFKRVDNGKELIAVIEISGNELIQTYTYEGVEAKRIFKKE
A) 0.624

Each recorded value in this set is attributed to patent US20060257938A1.
